- ASSAY COMMENT: logP determination by HPLC (EEC Directive 79/831 Annex V. A8)
- ASSAY SETUP: HPLC, gradient method, acetonitrile/0.1% aqueous phosphoric acid
METRIC: log.P

Reference set (5 entries):
## Input What value of measured log.P is listed for C[C@@H](Nc1c(-c2ccccc2Cl)c(Cl)nc2nc(Cl)nn12)C(F)(F)F [Example 97] ?
## Output 3.63

## Input Could you share which log.P value was measured for CC1CN(c2c(-c3c(F)cc(F)cc3F)c(Cl)nc3nc(Cl)nn23)CC(C)O1 (stereo not drawn) [Example 6] ?
## Output 3.72

## Input Given the entry C=C(C)CN(C)c1c(-c2ccc(F)cc2F)c(Cl)nc2nc(Cl)nn12 [Example 116] , report its measured log.P.
## Output 3.98

## Input Which value of log.P has been reported for Clc1nc2nc(Cl)c(-c3ccccc3Cl)c(NC3CCCC3)n2n1 [Example 34] in the records?
## Output 4.03

## Input For the compound shown here, CC(C)(C)Nc1c(-c2c(F)cc(F)cc2F)c(Cl)nc2nc(Cl)nn12 [Example 25] , give the reported log.P.
## Output 3.9

# batch size: 3; output log.P per entry
1. Fc1cccc(Cl)c1-c1c(Cl)nc2nc(Cl)nn2c1NCC1CC1 [Example 143]
2. CC(C)CC(C)Nc1c(-c2ccc(F)cc2F)c(Cl)nc2nc(Cl)nn12 (stereo not drawn) [Example 109]
3. COCCN(C)c1c(-c2ccc(F)cc2F)c(Cl)nc2nc(Cl)nn12 [Example 115]

## Output
[3.49, 4.31, 3.2]

## Input Requested read-out: log.P. Entry: FC(F)(F)C1CCN(c2c(-c3ccccc3Cl)c(Cl)nc3nc(Cl)nn23)CC1 [Example 81]
## Output 4.22

Hello, the source for this data is patent US20050222173A1, in case you need it.
